conditions: Ebola virus entry cell assay, ratio channel
Activity calls are given as the source filed them.
Classes used: active, inactive

| compound | category-label |
| --- | --- |
| CN1CCN2c3ncccc3Cc3ccccc3C2C1 (configuration not stated) | inactive |
| CCN(CC)C(=O)/C(C#N)=C/c1cc(O)c(O)c([N+](=O)[O-])c1 | inactive |
| C=CC(N)CCC(=O)O (configuration not stated) | inactive |
| COc1cc(C)c(/C=C/C(C)=C/C=C/C(C)=C/C(=O)O)c(C)c1C | inactive |
| CNCCCC12CCC(c3ccccc31)c1ccccc12 | active |
| CCC1(C)CC(=O)NC1=O (configuration not stated) | inactive |
| CC(C)CN(C[C@@H](OP(=O)(O)O)[C@H](Cc1ccccc1)NC(=O)O[C@H]1CCOC1)S(=O)(=O)c1ccc(N)cc1 | inactive |
| O=c1[nH]c(=O)n([C@H]2C[C@H](O)[C@@H](CO)O2)cc1F | inactive |
| CN/C(=C\[N+](=O)[O-])NCCSCc1csc(CN(C)C)n1 | inactive |
| O=C1Nc2ccc(Cl)cc2C(c2ccccc2Cl)=NC1O (configuration not stated) | inactive |
| CO[C@H]1C=CO[C@@]2(C)Oc3c(C)c(O)c4c(O)c(c5c(c4c3C2=O)=NC2(CCN(CC(C)C)CC2)N=5)NC(=O)/C(C)=C\C=C/[C@H](C)[C@H](O)[C@@H](C)[C@@H](O)[C@@H](C)[C@H](OC(C)=O)[C@@H]1C | inactive |
| C[C@](N)(Cc1ccc(O)cc1)C(=O)O | inactive |

====

max response values by entry
System: CRL-7250
Experiment: Cytotoxic Profiling of Annotated Libraries Using Quantitative High-Throughput Screening (AID 1296008); also: % is scaled to controls: 0 for no effect and ±100 for the full control effect; nearly all actives have a fitted effect of over 60% in size
Conditions: Five cell lines viability, CellTiter-Glo ATP luminescence, 48-72 h; active compounds read low
Description: Cell-based phenotypic screening is a commonly used approach to discover biological pathways, novel drug targets, chemical probes and high-quality hit-to-lead molecules. […] A pintool (Kalypsys) was used to transfer 23 nL of compound solution to the 1536-well assay plates. […] Plates were left at room temperature for 10 min before imaging the ATP-coupled luminescence using a ViewLux microplate imager (PerkinElmer, Waltham, MA).
Results filed as inconclusive are left out.
parameter: max response (%)

| molecule | tested-system | parameter | units-of-measure | quantitative-result |
| --- | --- | --- | --- | --- |
| NCCc1ccc(O)cc1 | CRL-7250 | max response | % | -9.28 |
| CCOP(=S)(OCC)Oc1ccc2c(C)c(Cl)c(=O)oc2c1 | CRL-7250 | max response | % | -4.21 |
| COc1cc(CC(C)N)cc(OC)c1OC (stereo not drawn) | CRL-7250 | max response | % | -18.9 |
| NC(=O)CS(=O)C(c1ccccc1)c1ccccc1 (stereo not drawn) | CRL-7250 | max response | % | 1.08 |
| COC1CC(=C(c2cccs2)c2cccs2)C[N+](C)(C)C1 (stereo not drawn) | CRL-7250 | max response | % | -1.67 |
| COc1ccc2c(c1OC)C(=O)O[C@H]2[C@@H]1c2cc3c(cc2CCN1C)OCO3 | CRL-7250 | max response | % | 0.738 |
| Nc1nc(N)nc(NC2CC2)n1 | CRL-7250 | max response | % | -14.4 |
| CCN(CC)C(=O)[C@@H]1C=C2c3cccc4[nH]cc(c34)C[C@H]2N(C)C1 | CRL-7250 | max response | % | -10.2 |
| NC1=NC(=O)C(c2ccccc2)O1 (stereo not drawn) | CRL-7250 | max response | % | -3.81 |
| CC(=O)OCC1=C(C(=O)O)N2C(=O)[C@@H](N)[C@H]2SC1 | CRL-7250 | max response | % | -3.91 |
| CNCC(=O)c1ccc(O)c(O)c1 | CRL-7250 | max response | % | 0.325 |
| CN1C(=O)COc2c(C(=O)NC3CN4CCC3CC4)cc(Cl)cc21 (stereo not drawn) | CRL-7250 | max response | % | -5.92 |
| CCN[C@H](C)Cc1cccc(C(F)(F)F)c1 | CRL-7250 | max response | % | -0.312 |
| COc1cc(CCN)cc(OC)c1OC | CRL-7250 | max response | % | -14.6 |
| Cc1ncsc1CCCl | CRL-7250 | max response | % | 3.36 |
| Nc1ccccc1C(=O)O | CRL-7250 | max response | % | -2.31 |
| O=C1c2ccccc2C(=O)C1C(=O)C(c1ccccc1)c1ccccc1 | CRL-7250 | max response | % | 3.94 |
| CCCCCN(C)CCC(O)(P(=O)(O)O)P(=O)(O)O | CRL-7250 | max response | % | -0.0055 |

====

Test system: ICS
Experiment: qHTS profiling for inhibitors of Plasmodium falciparum proliferation (AID 504749); also: nearly all actives have a fitted effect of over 60% in size
Details: P. falciparum in erythrocytes, SYBR Green DNA, 72 h; series mostly up to 28.7 µM
Description: NIH National Institute of Allergy and Infectious Diseases [NIAID] NIH Chemical Genomics Center [NCGC] […] Because mature erythrocytes lack DNA, only Plasmodium-derived DNA is detected. NCGC Assay Protocol Summary: The SYBR Green viability assay was adapted from a method described previously (Plouffe et al., 2008). […] The following morning, fluorescence intensity at 485(14) nm excitation and 535(25) nm emission wavelengths was measured on an EnVision (Perkin Elmer) plate reader. […]
Records with an inconclusive call do not appear. Calls of active or inactive are those of the source. Calls follow the shape of the dose curve; as a rule, active = well fitted inhibition curve with a large enough effect; inconclusive = small, poorly fitted or top-dose-only effect; inactive = flat fitted curve, though single readings scatter.
Classes used: class 1 for active, class 0 for inactive

| molecule | tested-system | category-label |
| --- | --- | --- |
| NNc1ccccc1 | ICS | class 0 |
| C[C@](O)(CS(=O)(=O)c1ccc(F)cc1)C(=O)Nc1ccc(C#N)c(C(F)(F)F)c1 | ICS | class 0 |
| O=P1(N(CCCl)CCCl)NCCCO1 (stereo not drawn) | ICS | class 0 |
| CN1C(=O)CC(=O)N(c2ccccc2)c2cc(Cl)ccc21 | ICS | class 0 |
| CCC(C)(C)c1ccc(O)cc1 | ICS | class 0 |
| COC(=O)C(c1ccccc1)C1CCCCN1 (stereo not drawn) | ICS | class 0 |
| COP(=S)(OC)SCN1C(=O)c2ccccc2C1=O | ICS | class 0 |
| Nc1ccccc1C(=O)O | ICS | class 0 |
| CN1C(=O)C(O)N=C(c2ccccc2)c2cc(Cl)ccc21 (stereo not drawn) | ICS | class 0 |
| Cc1nnc2n1-c1ccc(Cl)cc1C(c1ccccc1)=NC2 | ICS | class 1 |
| COP(=S)(OC)Oc1ccc(S(=O)(=O)N(C)C)cc1 | ICS | class 0 |
| O=C(O)CCCc1ccc(N(CCCl)CCCl)cc1 | ICS | class 0 |
| C=C(C)[C@H]1CN[C@H](C(=O)O)[C@H]1CC(=O)O | ICS | class 0 |

====

details: Ebola virus entry assay, green fluorescence channel
Potency and affinity values are given separately.
Assign labels as follows, please: condition met for efficacy below -20%; condition not met for efficacy equal to or exceeding -20%.

| compound | category-label |
| --- | --- |
| CC(C)c1cccc(C(C)C)c1O | condition not met |
| COC(=O)C1=C(C)NC(C)=C(C(=O)OCCc2ccc(N3CCN(C(c4ccccc4)c4ccccc4)CC3)cc2)C1c1cccc([N+](=O)[O-])c1 (stereo not given) | condition not met |
| COc1ccc(C2C(=O)c3ccccc3C2=O)cc1 | condition met |
| NCc1ccc(S(N)(=O)=O)cc1 | condition not met |
| CCCCCCCCCCC[C@@H](C[C@@H]1OC(=O)[C@H]1CCCCCC)OC(=O)[C@H](CC(C)C)NC=O | condition met |
| O=C(OCC1(COC(=O)c2cccnc2)CCCC(COC(=O)c2cccnc2)(COC(=O)c2cccnc2)C1O)c1cccnc1 | condition not met |
| CC(=O)OC[C@H]1O[C@@H](OC(C)=O)[C@H](OC(C)=O)[C@@H]1OC(C)=O | condition not met |
| O=C(CN1CCNCC1)NC1CCCCC1 | condition not met |
| O=C1c2c(O)cccc2Cc2cccc(O)c21 | condition not met |
| c1ccc2sc(SSc3nc4ccccc4s3)nc2c1 | condition not met |

====

test: Primary qHTS for inhibitors of nuclear receptor binding SET domain protein 2 (NSD2) in an isogenic RCH-ACV NSD2 p.E1099K mutant (9B) (AID 1645876); conditions: RCH-ACV (leukaemia line) NSD2 E1099K (9B) viability, CellTiter-Glo, 72 h; series mostly up to 44.9 µM; also: nearly all actives have a fitted effect of over 70% in size
Inconclusive results are not listed. Active and inactive are the calls of the source. The call rests on the fitted dose curve; in most records, active means well fitted inhibition curve with a large enough effect; inconclusive means small, poorly fitted or top-dose-only effect; inactive means flat fitted curve, though single readings scatter.
Classes used: T = active, F = inactive

| compound | category-label |
| --- | --- |
| CN1C(=O)CCS(=O)(=O)C1c1ccc(Cl)cc1 (stereo unspecified) | F |
| CC(C)(C)NCC(O)c1ccccc1Cl (stereo unspecified) | F |
| C=CCC1(C(C)CC)C(=O)NC(=O)NC1=O (stereo unspecified) | F |
| CCCN(CCC)C(=O)Cc1c(-c2ccc(Cl)cc2)nc2ccc(Cl)cn12 | F |
| Oc1ccc(Cl)cc1 | F |
| Nc1nc(N)nc(NC2CC2)n1 | F |
| CC(Cc1ccccc1)NCCn1cnc2c1c(=O)n(C)c(=O)n2C (stereo unspecified) | F |
| Nc1ccc([As](=O)(O)O)cc1 | F |
| CNCC(=O)c1ccc(O)c(O)c1 | F |
| CCC(C)C(C)(COC(N)=O)COC(N)=O (stereo unspecified) | F |
| CC(=O)OCC1=C(C(=O)O)N2C(=O)[C@@H](N)[C@H]2SC1 | F |
| C[C@]12CC[C@@H]3c4ccc(OC(=O)N(CCCl)CCCl)cc4CC[C@H]3[C@@H]1CC[C@@H]2OP(=O)(O)O | F |
| CN1C(=O)NC(=O)C(C)(C2=CCCCC2)C1=O (stereo unspecified) | F |
| C[C@]12CCC(=O)C=C1CC[C@@H]1[C@H]3CC[C@](C)(O)[C@@]3(C)CC[C@@H]12 | T |
| O=C1c2ccccc2C(=O)c2ccccc21 | F |
| NC1=NC(=O)C(c2ccccc2)O1 (stereo unspecified) | F |
| C[C@]12CC[C@H]3[C@@H](CCC4=CC(=O)CC[C@@H]43)[C@@H]1CC[C@@H]2OC(=O)CCc1ccco1 | T |
| CC(C)c1cccc(C(C)C)c1O | F |
| C=C(C)[C@H]1CN[C@H](C(=O)O)[C@H]1CC(=O)O | F |
| O=C1OC(CCN2CCCCC2)OC1(c1ccccc1)c1ccccc1 (stereo unspecified) | T |
| [N-]=[N+]=CC(=O)OC[C@H](N)C(=O)O | F |
| COC(=O)[C@@H](N)CCCN/C(N)=N/[N+](=O)[O-] | F |
| CN1C(=O)COc2c(C(=O)NC3CN4CCC3CC4)cc(Cl)cc21 (stereo unspecified) | F |
| CCN[C@@H](C)Cc1cccc(C(F)(F)F)c1 | F |
| Clc1ccc(C(c2ccc(Cl)cc2)C(Cl)(Cl)Cl)cc1 | F |
| CC(C)(C)NCC(O)c1cc(Cl)c(N)c(C(F)(F)F)c1 (stereo unspecified) | F |
